# assayed-target: Ubiquitin carboxyl-terminal hydrolase 30 (Homo sapiens)
# assay-comment: inhibitors of ubiquitin-specific protease 30 deubiquitylating enzyme, concentration dependence, in vitro biochemical, validation of primary hits (AID 1645865)
# details: purified USP30, Ub-rhodamine cleavage, fluorescence, 2 h
Active and inactive are the calls of the source.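 Rule for the calls: active = maximal inhibition of the USP30 enzyme reaching 30% or more across the dose series; inactive = the rest.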
Assign a class; possible classes are active, inactive

Q: Test call, this molecule: COc1ccc(-c2cc(-c3nnc(CSc4nc5ccccc5n4C)o3)c3ccccc3n2)cc1OC
Result: inactive

Q: Test call, this molecule: COc1ccc(NC(=O)C2CC(=O)Nc3cc(-c4ccccc4)nn32)cc1 (stereo not drawn)
Result: active

Q: Test call, this molecule: O=C(NCc1ccc2c(c1)OCO2)c1nc(-c2ccccc2)n(-c2ccccc2)n1
Result: inactive

Q: Test call, this molecule: NS(=O)(=O)c1ccc(NS(=O)(=O)c2ccc(NC(=O)Nc3ccc(Cl)cc3)cc2)cc1
Result: active

Q: Test call, this molecule: Cc1sc(NC(=O)CNc2ccccc2)nc1-c1ccc2c(c1)CCN2C(=O)C(C)C
Result: inactive

Q: Test call, this molecule: Cc1ccnc(NC(=O)c2ccn(COc3ccc(Cl)cc3)n2)c1
Result: active

Q: Test call, this molecule: O=C(Nc1ccc2c(c1)OCCO2)c1cc(CN2CCOCC2)on1
Result: inactive

---

# assayed-target: Ubiquitin carboxyl-terminal hydrolase 30 (Homo sapiens) (UniProt Q70CQ3)
# Sequence (Q70CQ3 whole entry, looked up): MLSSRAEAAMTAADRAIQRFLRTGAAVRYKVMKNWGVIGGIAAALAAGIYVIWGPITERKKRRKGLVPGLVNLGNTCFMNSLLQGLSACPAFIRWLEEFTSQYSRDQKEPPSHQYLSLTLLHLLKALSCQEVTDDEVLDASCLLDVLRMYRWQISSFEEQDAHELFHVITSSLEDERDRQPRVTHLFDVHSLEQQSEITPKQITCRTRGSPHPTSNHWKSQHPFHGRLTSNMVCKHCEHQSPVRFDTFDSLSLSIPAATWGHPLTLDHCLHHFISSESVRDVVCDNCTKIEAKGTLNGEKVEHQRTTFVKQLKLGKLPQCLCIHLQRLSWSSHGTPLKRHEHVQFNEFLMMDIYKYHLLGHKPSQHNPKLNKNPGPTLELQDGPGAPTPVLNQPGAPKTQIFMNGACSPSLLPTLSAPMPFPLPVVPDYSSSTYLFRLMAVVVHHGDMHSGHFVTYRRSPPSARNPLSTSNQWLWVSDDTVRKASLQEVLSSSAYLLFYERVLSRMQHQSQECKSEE
# assay-comment: inhibitors of ubiquitin-specific protease 30 deubiquitylating enzyme, concentration dependence, in vitro biochemical, validation of primary hits (AID 1645865)
# details: purified USP30, Ub-rhodamine cleavage, fluorescence, 2 h
Activity calls are given as the source filed them.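 How the source made its calls: active means maximal inhibition of the USP30 enzyme reaching 30% or more across the dose series; inactive means the rest.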
quantity: IC50

[[record]]
compound = "O=C(Nc1nnc2n1CCCS2)c1cccc(Cl)c1"
result = "> 50 µM (inactive)"

[[record]]
compound = "COc1cccc(/C=C/C(=O)Nc2ccc(N3CCOCC3)cc2)c1OC"
result = "> 50 µM (inactive)"

[[record]]
compound = "CCN(CC(=O)Nc1cc(C)on1)c1cccc2ccccc12"
result = "> 50 µM (inactive)"


Q: Write down the reported IC50 of CS(=O)(=O)N1CCCc2cc(C(=O)Nc3ccc(Oc4ccccc4)cc3)ccc21 , test system: Ubiquitin carboxyl-terminal hydrolase 30 (Homo sapiens) (UniProt Q70CQ3).
Result: > 50 µM (inactive)

Q: Write down the reported IC50 of COc1ccc(-c2cc(-c3nnc4n3CCCCC4)n(-c3ccccc3)n2)cc1 , test system: Ubiquitin carboxyl-terminal hydrolase 30 (Homo sapiens) (UniProt Q70CQ3).
Result: 39.3 µM

Q: Write down the reported IC50 of CC(=O)Nc1ccc(-n2cnc(C(=O)NCc3ccc(C)cc3)c2)nc1 , test system: Ubiquitin carboxyl-terminal hydrolase 30 (Homo sapiens) (UniProt Q70CQ3).
Result: 21.2 µM

Q: Write down the reported IC50 of N#C/C(=C/c1sc(N2CCOCC2)nc1-c1ccccc1)c1ccccn1 , test system: Ubiquitin carboxyl-terminal hydrolase 30 (Homo sapiens) (UniProt Q70CQ3).
Result: > 50 µM (inactive)

Q: Write down the reported IC50 of O=C(Nc1ccc(F)cc1)Nc1ccccc1OCc1cc(=O)n2ccccc2n1 , test system: Ubiquitin carboxyl-terminal hydrolase 30 (Homo sapiens) (UniProt Q70CQ3).
Result: 3.88 µM

Q: Write down the reported IC50 of CCOC(=O)c1sc2c(c1C)c(=O)n(Cc1ccccc1)c(=O)n2CC(N)=O , test system: Ubiquitin carboxyl-terminal hydrolase 30 (Homo sapiens) (UniProt Q70CQ3).
Result: 45.5 µM

Q: Write down the reported IC50 of Cn1cc(-c2noc(Cc3cccc(C(F)(F)F)c3)n2)ccc1=O , test system: Ubiquitin carboxyl-terminal hydrolase 30 (Homo sapiens) (UniProt Q70CQ3).
Result: > 50 µM (inactive)

Q: Write down the reported IC50 of COc1cc(C(=O)Nc2ccc(-c3csc(C)n3)cc2)cc(OC)c1OC , test system: Ubiquitin carboxyl-terminal hydrolase 30 (Homo sapiens) (UniProt Q70CQ3).
Result: > 50 µM (inactive)

Q: Write down the reported IC50 of N#Cc1ccccc1COC(=O)c1ccc2ccccc2n1 , test system: Ubiquitin carboxyl-terminal hydrolase 30 (Homo sapiens) (UniProt Q70CQ3).
Result: > 50 µM (inactive)

Q: Write down the reported IC50 of CC(C)(C)C(=O)[C@@H]1[C@@H](C(=O)c2ccc3c(c2)OCO3)[C@@]2(C(=O)Nc3ccccc32)[C@H]2c3ccccc3C=CN12 , test system: Ubiquitin carboxyl-terminal hydrolase 30 (Homo sapiens) (UniProt Q70CQ3).
Result: > 50 µM (inactive)

Q: Write down the reported IC50 of CC1CCc2sc(NC(=O)c3ccccc3Oc3ccccc3)c(C(N)=O)c2C1 (centres undefined) , test system: Ubiquitin carboxyl-terminal hydrolase 30 (Homo sapiens) (UniProt Q70CQ3).
Result: 3.28 µM

Q: Write down the reported IC50 of Cc1c(C(=O)c2ccccc2)c2ccccn2c1CCc1ccccn1 , test system: Ubiquitin carboxyl-terminal hydrolase 30 (Homo sapiens) (UniProt Q70CQ3).
Result: > 50 µM (inactive)

Q: Write down the reported IC50 of O=C(Nc1cc(F)c2nc(N3CCCC3)ccc2c1)c1ccco1 , test system: Ubiquitin carboxyl-terminal hydrolase 30 (Homo sapiens) (UniProt Q70CQ3).
Result: > 50 µM (inactive)

Q: Write down the reported IC50 of CCOc1ccc(S(=O)(=O)Nc2ccc[nH]c2=O)cc1 , test system: Ubiquitin carboxyl-terminal hydrolase 30 (Homo sapiens) (UniProt Q70CQ3).
Result: > 50 µM (inactive)

Q: Write down the reported IC50 of O=C(Nc1ccc2c(c1)OCO2)c1[nH]nc2c1CCc1ccccc1-2 , test system: Ubiquitin carboxyl-terminal hydrolase 30 (Homo sapiens) (UniProt Q70CQ3).
Result: > 50 µM (inactive)

Q: Write down the reported IC50 of COc1ccc(NC(=O)C2Oc3ccc(C)cc3NC2=O)cc1Cl (centres undefined) , test system: Ubiquitin carboxyl-terminal hydrolase 30 (Homo sapiens) (UniProt Q70CQ3).
Result: 19.5 µM

Q: Write down the reported IC50 of Cc1nc(-c2ccc(C(=O)NCc3ccc(F)cc3)cc2)cs1 , test system: Ubiquitin carboxyl-terminal hydrolase 30 (Homo sapiens) (UniProt Q70CQ3).
Result: 38.3 µM

Q: Write down the reported IC50 of Cc1cnc2nc3c(cc2c1)CN(CCc1ccc(Cl)cc1)CC3 , test system: Ubiquitin carboxyl-terminal hydrolase 30 (Homo sapiens) (UniProt Q70CQ3).
Result: > 50 µM (inactive)

---

# assayed-target: Ubiquitin carboxyl-terminal hydrolase 30 (Homo sapiens)
# assay-comment: inhibitors of ubiquitin-specific protease 30 deubiquitylating enzyme, concentration dependence, in vitro biochemical, validation of primary hits (AID 1645865)
# details: purified USP30, Ub-rhodamine cleavage, fluorescence, 2 h
Active and inactive are the calls of the source.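 How the source made its calls: active means maximal inhibition of the USP30 enzyme reaching 30% or more across the dose series; inactive means the rest.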
Assign a class; possible classes are 1.0 (active), 0.0 (inactive)

[[record]]
compound = "COc1ccc(NC(=O)c2nc3n(n2)-c2ccccc2S(=O)(=O)N3)cn1"
assayed_target = "Ubiquitin carboxyl-terminal hydrolase 30 (Homo sapiens)"
class_assignment = 0.0

[[record]]
compound = "CN1CC2CN(C(=O)Nc3cccnc3)CCN2Cc2ccccc21 (centres undefined)"
assayed_target = "Ubiquitin carboxyl-terminal hydrolase 30 (Homo sapiens)"
class_assignment = 0.0

[[record]]
compound = "CC1CCc2c(sc3nc(CC#N)[nH]c(=O)c23)C1 (centres undefined)"
assayed_target = "Ubiquitin carboxyl-terminal hydrolase 30 (Homo sapiens)"
class_assignment = 0.0


Q: Test call, this compound: CC(C)(C)c1ccc(-c2nnc3n2-c2ccccc2SC3)cc1
Result: 1.0

---

# assayed-target: Ubiquitin carboxyl-terminal hydrolase 30 (Homo sapiens) (UniProt Q70CQ3)
# assay-comment: inhibitors of ubiquitin-specific protease 30 deubiquitylating enzyme, concentration dependence, in vitro biochemical, validation of primary hits (AID 1645865)
# details: purified USP30, Ub-rhodamine cleavage, fluorescence, 2 h
Calls of active or inactive are those of the source.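 The calls were made as follows: active = maximal inhibition of the USP30 enzyme reaching 30% or more across the dose series; inactive = the rest.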
Assign a class; possible classes are active, inactive

These recorded examples may help you get a feel for the data.
[[record]]
molecule = "Nc1nc(OCc2ccccc2)c2[nH]c(/C=C/c3cccs3)nc2n1"
class_assignment = "active"

[[record]]
molecule = "Cc1c(C)n(-c2ccc(Br)cn2)c2ncnc(NCCCO)c12"
class_assignment = "active"

[[record]]
molecule = "O=C(NCc1cccnc1)c1cnn2c(C(F)(F)F)cc(-c3ccc(F)cc3)nc12"
class_assignment = "active"

[[record]]
molecule = "C=C(NC(=O)C(=C)NC(=O)c1csc(-c2ccc3c(n2)-c2csc(n2)-c2csc(n2)C(C(C)C2CO2)NC(=O)C(Cc2ccc(O)cc2)NC(=O)c2csc(n2)C(C(O)c2ccccc2)NC(=O)c2nc(sc2C)C(CC(N)=O)NC(=O)c2csc-3n2)n1)C(=O)O (stereo not drawn)"
class_assignment = "inactive"

[[record]]
molecule = "O=C(Nc1ccccc1)c1nc2c(s1)CCN(C(=O)c1ccccc1)CC2"
class_assignment = "inactive"

[[record]]
molecule = "CN1CCC(N(C)S(=O)(=O)c2ccc(NC(=O)c3cccc(OCc4ccccc4)c3)cc2)CC1"
class_assignment = "active"


Q: Test call, this molecule: O=C(Cn1cncc(-c2nc(-c3ccccc3)cs2)c1=O)NC1CCCC1
Result: active

Q: Test call, this molecule: COc1ncccc1CN1CCn2c(Cn3cncn3)cnc2C1C (stereo not drawn)
Result: inactive

Q: Test call, this molecule: COc1ccccc1OCc1ccc(C(=O)Nc2ccc(F)cc2C)cc1
Result: active
